# EXPERIMENT DESCRIPTION: protein stability index of a GFP-peptide fusion (yeast GPS) (PSI 1-4); higher = more stable; sorted into four equal gates, so the index is relative within each strain
# COND: ubr1∆
Here, each record is paired with measured protein stability index data.
I only need the number, thanks.

SRCHLVTKDTKKYSSKN [SRP68] : 3.12
ASPSAHTSSSDGNNEIF [RPN4] : 3
EKAVEEKPAVKSYASLL [RPT3] : 2.96
TEELSITGEKLDTQLND [SMC1] : 1.36
EFGADWYKVAKNVGNKS [SWI3] : 3.3

## Task I'd like to know its protein stability index. The sequence in question is VNRQSPLFFVDLKLLFN [RGR1]
## Result 1.23

## Task I'd like to know its protein stability index. The sequence in question is QRTLSKSFYSTATGAAS [CYT1]
## Result 2.39

## Task I'd like to know its protein stability index. The sequence in question is LKFNSTEYRGTLVSTDN [SMX3]
## Result 2.25

## Task I'd like to know its protein stability index. The sequence in question is NKIKLNILKILSSLILK [SRB8]
## Result 1.87

## Task I'd like to know its protein stability index. The sequence in question is AASSQVSIVKLDTQLIT [SNF12]
## Result 2.02

## Task I'd like to know its protein stability index. The sequence in question is SVTVSQGNYVTEDIREG [YMR129W/POM152]
## Result 2.85

## Task I'd like to know its protein stability index. The sequence in question is YELYINKLTILGRDYPI [IRR1]
## Result 2.04

## Task I'd like to know its protein stability index. The sequence in question is SHPEKRMIPPRMVRSIM [SSN3]
## Result 3.19

## Task I'd like to know its protein stability index. The sequence in question is NILIASLMDTLITPAVR [YCG1]
## Result 1.78

## Task I'd like to know its protein stability index. The sequence in question is LPKIKTVRKSIACVLTV [RPL35A]
## Result 2.17

## Task I'd like to know its protein stability index. The sequence in question is YPIYELLMSCPRLSHLS [GRR1]
## Result 1.39

---

# EXPERIMENT DESCRIPTION: protein stability index of a GFP-peptide fusion (yeast GPS) (PSI 1-4); higher = more stable; sorted into four equal gates, so the index is relative within each strain
# COND: ubr1∆
Here, each record is paired with measured protein stability index data.
I only need the number, thanks.

AQSVGCRVDFKNPHDII [RPL12A] : 2.32
EALIEFIYDTEKNGGLG [FAS2] : 2.17
NNTTPSSTGNANTSNNL [YJL041W/NSP1] : 3.37
GGADQVTRTQQWSMVAQ [SWI1] : 3.07
EDSMIMNQSSIDRGLFR [RPB2] : 2.91

## Task I'd like to know its protein stability index. The sequence in question is IHIQSKENYPWELYTDF [POP3]
## Result 3.12

## Task I'd like to know its protein stability index. The sequence in question is AAASLPSKKLKTEDGFV [RPC82]
## Result 3.04

## Task I'd like to know its protein stability index. The sequence in question is FAQENSELAVATTSVMM [SRB6]
## Result 3.33

## Task I'd like to know its protein stability index. The sequence in question is LVTPKSFLFDVLKTLEY [NUT1]
## Result 2.92

## Task I'd like to know its protein stability index. The sequence in question is NSEISNLPKDKSGIPEF [SSN2]
## Result 3.33

## Task I'd like to know its protein stability index. The sequence in question is KVDSPDDPFMTKSGATT [GAL11]
## Result 2.79

## Task I'd like to know its protein stability index. The sequence in question is NNESSDDMDIDEVNDRS [PCI8]
## Result 3.09
